- System: Stagonospora nodorum
- Protocol Text: Test D: wheat glume blotch, preventive spray on wheat seedlings
- Condition: 10 ppm test solution; 100 = 100% disease control, 0 = no control relative to controls
Test D disease control rating for assorted compounds

Sample answers from the record:
CC(C)(C)C(O)(Cn1cncn1)C1=NOC(COc2cccc(C(F)(F)F)c2)C1 (single isomer, unassigned) [Compound 254] : 99%
OC(Cn1cncn1)(C1=NOC2c3ccccc3CCC12)c1ccc(Cl)cc1 (stereo not shown) [Compound 223] : 0%
CC(C)(C)C(O)(Cn1cncn1)C1=NOC(COc2ccc(Cl)cc2)C1 (single isomer, unassigned) [Compound 243] : 0%

So what does the record say about Test D disease control rating for CC1(C(O)(Cn2cncn2)C2=NOC(COc3ccc(C(F)(F)F)cc3)C2)CC1 (single isomer, unassigned) [Compound 236] ?
99%

# input compound: CC(C)(C)CC(O)(Cn1cncn1)C1=NOC(COc2ccc(F)cc2)C1 (single isomer, unassigned) [Compound 245] ; wanted: its Test D disease control rating
51%

Record request: Test D disease control rating value, item CC(C)(C)CC(O)(Cn1cncn1)C1=NOC(Cc2ccc(C(F)(F)F)cc2)C1 (single isomer, unassigned) [Compound 226]
51%

Given the compound CC(C)(C)C(O)(Cn1cncn1)C1=NOC(COc2ccc(Cl)cc2Cl)C1 (single isomer, unassigned) [Compound 256] , what is its reported Test D disease control rating?
97%
